The variants listed here are annotated with their protein stability index.
B1: TBX5 (parent)
chain: FHEVGTEMIITKAGRRMFPSYKVK

- Variants of: B1
- assay_comment: protein stability index of a GFP-peptide fusion (GPS, HEK-293T) (PSI 1-6); higher = more stable;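 note: lentivirally expressed fusions sorted by FACS into six bins by GFP to DsRed ratio, PSI derived from sequencing read proportions per bin multiplied by bin number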
- condition: c terminus: a fixed tail appended
Give the figure by itself; no unit, no explanation.

[Q] Which protein stability index is reported for this variant? R15Q
[A] 2.2

[Q] Which protein stability index is reported for this variant? K22H
[A] 1.55

[Q] Which protein stability index is reported for this variant? V23Q
[A] 2.09

[Q] Which protein stability index is reported for this variant? K12V
[A] 2.68

[Q] Which protein stability index is reported for this variant? K12A
[A] 2.52

[Q] Which protein stability index is reported for this variant? P19T
[A] 2.1

[Q] Which protein stability index is reported for this variant? M8N
[A] 2.38

[Q] Which protein stability index is reported for this variant? F18G
[A] 2.25

[Q] Which protein stability index is reported for this variant? I10W
[A] 1.76

[Q] Which protein stability index is reported for this variant? A13C
[A] 2.03

Further cases:
[Q] Which protein stability index is reported for this variant? M17V
[A] 1.63

[Q] Which protein stability index is reported for this variant? T11S
[A] 3.49

[Q] Which protein stability index is reported for this variant? S20H
[A] 2.31
